- assayed_target: Human Topoisomerase IIα (Homo sapiens, UniProt P11388)
- Construct: purchased USB, Affymetrix, Waltham, MA, USA
- Sequence (P11388 whole entry): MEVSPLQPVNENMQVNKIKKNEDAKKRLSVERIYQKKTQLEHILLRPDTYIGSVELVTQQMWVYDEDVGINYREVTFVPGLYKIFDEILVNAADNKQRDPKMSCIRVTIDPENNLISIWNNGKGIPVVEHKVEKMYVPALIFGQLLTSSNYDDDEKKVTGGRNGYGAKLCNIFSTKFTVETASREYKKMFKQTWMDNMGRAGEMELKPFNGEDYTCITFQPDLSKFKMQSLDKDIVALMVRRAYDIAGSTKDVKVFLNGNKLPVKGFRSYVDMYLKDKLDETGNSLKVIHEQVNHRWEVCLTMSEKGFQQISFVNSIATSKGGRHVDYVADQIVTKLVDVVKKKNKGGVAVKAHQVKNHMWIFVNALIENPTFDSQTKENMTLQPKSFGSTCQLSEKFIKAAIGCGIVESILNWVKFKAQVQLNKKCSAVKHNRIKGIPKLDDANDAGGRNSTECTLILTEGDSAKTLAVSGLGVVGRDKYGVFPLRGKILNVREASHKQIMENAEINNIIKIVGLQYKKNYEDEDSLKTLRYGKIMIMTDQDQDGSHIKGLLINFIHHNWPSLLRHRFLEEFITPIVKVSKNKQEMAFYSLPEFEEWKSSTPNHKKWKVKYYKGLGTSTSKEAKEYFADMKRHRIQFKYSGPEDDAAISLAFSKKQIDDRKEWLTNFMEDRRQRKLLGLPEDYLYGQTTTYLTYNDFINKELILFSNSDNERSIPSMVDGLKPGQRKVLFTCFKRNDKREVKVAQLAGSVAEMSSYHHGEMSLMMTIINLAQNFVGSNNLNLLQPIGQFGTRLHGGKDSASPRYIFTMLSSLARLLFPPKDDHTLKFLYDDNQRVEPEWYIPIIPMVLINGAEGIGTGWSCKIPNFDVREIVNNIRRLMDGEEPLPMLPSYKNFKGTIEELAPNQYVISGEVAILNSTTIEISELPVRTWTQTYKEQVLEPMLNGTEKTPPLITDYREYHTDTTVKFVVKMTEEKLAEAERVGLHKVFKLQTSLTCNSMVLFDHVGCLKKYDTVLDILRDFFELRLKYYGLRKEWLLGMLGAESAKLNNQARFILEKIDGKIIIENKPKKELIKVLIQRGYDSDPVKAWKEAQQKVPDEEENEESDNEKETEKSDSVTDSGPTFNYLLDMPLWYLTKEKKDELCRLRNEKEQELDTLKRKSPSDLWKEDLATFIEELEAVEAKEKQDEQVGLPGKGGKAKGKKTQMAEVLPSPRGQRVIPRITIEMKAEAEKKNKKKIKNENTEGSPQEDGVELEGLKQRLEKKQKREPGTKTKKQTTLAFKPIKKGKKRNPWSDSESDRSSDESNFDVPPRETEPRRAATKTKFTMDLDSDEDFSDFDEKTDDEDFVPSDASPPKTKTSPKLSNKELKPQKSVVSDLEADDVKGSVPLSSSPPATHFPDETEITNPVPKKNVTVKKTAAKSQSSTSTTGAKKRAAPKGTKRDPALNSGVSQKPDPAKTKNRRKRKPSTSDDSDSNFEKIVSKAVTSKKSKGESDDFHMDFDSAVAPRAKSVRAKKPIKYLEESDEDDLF
- test_protocol: Topoisomerase II relaxation assay (supercoiled pBR322)
- Format: biochemical
- conditions: 100 μM compound; read-out: Topo II Inhibition (%) 100 μM
inhibition at 100 µM below 70% gives 0.0; inhibition at 100 µM at or above it gives 1.0.

Cc1ccc2[nH]c3c(c2c1)C[C@@]1(C)C(CC[C@]2(C)C1CC=C1C4[C@@H](C)[C@H](C)CC[C@]4(C(=O)NCCN4CCN(C)CC4)CC[C@]12C)C3(C)C (stereo partly drawn) :: 1.0

Query :: Please check the record Cc1ccc2[nH]c3c(c2c1)C[C@@]1(C)C(CC[C@]2(C)C1CC=C1C4[C@@H](C)[C@H](C)CC[C@]4(C(=O)NCCCCN4CCOCC4)CC[C@]12C)C3(C)C (stereo partly drawn) and state if its inhibition at 100 µM is at or above 70%.
Result :: 0.0

Query :: Tell me whether inhibition at 100 µM is at least 70% here: Cc1ccc2[nH]c3c(c2c1)C[C@@]1(C)C(CC[C@]2(C)C1CC=C1C4[C@@H](C)[C@H](C)CC[C@]4(C(=O)NCCN4CCOCC4)CC[C@]12C)C3(C)C (stereo partly drawn)
Result :: 0.0

Query :: Threshold query (inhibition at 100 µM >= 70%) on Cc1ccc2[nH]c3c(c2c1)C[C@@]1(C)C(CC[C@]2(C)C1CC=C1C4[C@@H](C)[C@H](C)CC[C@]4(C(=O)NCCCN4CCCCC4)CC[C@]12C)C3(C)C (stereo partly drawn)
Result :: 1.0

Query :: Item Cc1ccc2[nH]c3c(c2c1)C[C@@]1(C)C(CC[C@]2(C)C1CC=C1C4[C@@H](C)[C@H](C)CC[C@]4(C(=O)NCCNC(=O)[C@]45CC[C@@H](C)[C@H](C)C4C4=CCC6[C@@]7(C)Cc8c([nH]c9ccc(C)cc89)C(C)(C)C7CC[C@@]6(C)[C@]4(C)CC5)CC[C@]12C)C3(C)C (stereo partly drawn) with inhibition at 100 µM of 70% or above?
Result :: 0.0

Query :: Textbook exercise: given the entry Cc1ccc2[nH]c3c(c2c1)C[C@@]1(C)C(CC[C@]2(C)C1CC=C1C4[C@@H](C)[C@H](C)CC[C@]4(C(=O)NCCCN(C)C)CC[C@]12C)C3(C)C (stereo partly drawn) , state whether its inhibition at 100 µM is greater than or equal to 70%.
Result :: 1.0

Query :: Does the compound Cc1ccc2[nH]c3c(c2c1)C[C@@]1(C)C(CC[C@]2(C)C1CC=C1C4[C@@H](C)[C@H](C)CC[C@]4(C(=O)NCCCCN4CCCCC4)CC[C@]12C)C3(C)C (stereo partly drawn) have recorded inhibition at 100 µM that is 70% or more?
Result :: 1.0

Query :: Could you verify whether the entry Cc1ccc2[nH]c3c(c2c1)C[C@@]1(C)C(CC[C@]2(C)C1CC=C1C4[C@@H](C)[C@H](C)CC[C@]4(C(=O)NCCCN)CC[C@]12C)C3(C)C (stereo partly drawn) shows inhibition at 100 µM of no less than 70%?
Result :: 1.0

Query :: Given COc1cc([C@@H]2c3cc4c(cc3[C@@H](O[C@@H]3O[C@@H]5CO[C@@H](C)O[C@H]5[C@H](O)[C@H]3O)[C@H]3COC(=O)[C@H]23)OCO4)cc(OC)c1O [VP-16, etoposide, reference compound] , state whether its inhibition at 100 µM is at least 70%.
Result :: 1.0

Taken from paper PMC7215373.
